Target: Thrombin
Assay: enzyme inhibition, Z-Gly-Pro-Arg-pNa substrate, tight-binding fit
Please go through the items and note down their pKi.
The scale used: pKi is minus the common logarithm of the concentration in molar units.

Input: Recorded pKi of GRCTKSIPPICFPD (modifications not checked) [wild-type SFTI (Sun Flower Trypsin Inhibitor)] , please.
Output: 3.85

Input: Recorded pKi of GYCSRSYPPVCIPD (modifications not checked) [M2-6E] , please.
Output: 3.26
